- assayTarget: K346 (Drosophila kinesin-1 motor domain; apo-K346) (Drosophila melanogaster)
- Sequence (P17210 2-346): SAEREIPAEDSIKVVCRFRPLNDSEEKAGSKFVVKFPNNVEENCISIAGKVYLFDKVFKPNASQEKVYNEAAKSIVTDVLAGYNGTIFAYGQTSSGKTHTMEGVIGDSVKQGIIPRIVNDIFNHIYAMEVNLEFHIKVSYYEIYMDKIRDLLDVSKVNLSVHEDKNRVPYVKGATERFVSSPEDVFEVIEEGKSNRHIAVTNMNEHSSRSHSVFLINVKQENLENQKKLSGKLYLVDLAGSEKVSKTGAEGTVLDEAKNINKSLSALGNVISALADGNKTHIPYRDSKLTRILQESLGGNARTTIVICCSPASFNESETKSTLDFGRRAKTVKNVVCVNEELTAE
- procedureDetails: stopped-flow FRET
parameterMeasured: Kd (nM)
Please state the figure in nM; there is no need to write the unit.

[ask] Would you kindly share the measured Kd for CNc1ccccc1C(=O)O[C@H]1C[C@H](n2cnc3c(N)ncnc32)O[C@@H]1COP(=O)(O)OP(=O)(O)O [mdADP] ?
[reply] 2
